Source listed as patent US7101878B1.

Quick reference for Tmax among some compounds
EXPERIMENT NOTES: Pharmacokinetic studies / bioavailability in rats
Format: in vivo, rat
TEST CONDITIONS: male, rat, plasma, po, 10 mg/kg, rat male; p.o. 10 mg/kg; vehicle per footnote
ASSAY METRIC: Tmax (h)

[
  {
    "STRUCTURE": "COc1cc(OC)c(NC(=O)c2ccc(Cc3cc4c(cc3C)CCCC4(C)C)o2)c(OC)c1",
    "ASSAY METRIC": "Tmax",
    "RESULT": 1
  },
  {
    "STRUCTURE": "Cc1ccc(CNC(=O)c2ccc(Cc3cc4c(cc3C)C(C)(C)CCC4(C)C)o2)cc1",
    "ASSAY METRIC": "Tmax",
    "RESULT": 1
  }
]

----------
Quick reference for remaining activity at 10 µM among some compounds
SYSTEM: mouse GnRH receptor (Mus musculus)
Construct: expressed in transfected cells; host or cells: 293 cells
EXPERIMENT NOTES: Radioligand binding, 125I-GnRH-A, 293 cells expressing mouse GnRH receptors
TEST CONDITIONS: 1 h, substrate remaining; 10 uM compound; closer to zero = closer to 100% inhibition; read-out: S%R 10 uM mGnRHR
ASSAY METRIC: remaining activity at 10 µM (%)

[
  {
    "COMPOUND": "Cc1cc2c(cc1Cc1ccc(C(=O)NC3CCC3)o1)C(C)(C)CCC2(C)C [Compound 572]",
    "ASSAY METRIC": "remaining activity at 10 µM",
    "OUTPUT UNIT": "%",
    "RESULT": 41
  },
  {
    "COMPOUND": "Cc1cc2c(cc1Cc1ccc(C(=O)N(Cc3cccnc3)Cc3ccccc3F)o1)C(C)(C)CCC2(C)C [Compound 703]",
    "ASSAY METRIC": "remaining activity at 10 µM",
    "OUTPUT UNIT": "%",
    "RESULT": 5
  },
  {
    "COMPOUND": "Cc1cc2c(cc1Cc1ccc(C(=O)NCC3CCC(C(=O)O)CC3)o1)C(C)(C)CCC2(C)C (stereo not drawn) [Compound 479]",
    "ASSAY METRIC": "remaining activity at 10 µM",
    "OUTPUT UNIT": "%",
    "RESULT": -3
  },
  {
    "COMPOUND": "Cc1cc2c(cc1Cc1ccc(C(=O)NCCC3OCCO3)o1)C(C)(C)CCC2(C)C [Compound 676]",
    "ASSAY METRIC": "remaining activity at 10 µM",
    "OUTPUT UNIT": "%",
    "RESULT": -4
  },
  {
    "COMPOUND": "Cc1cc2c(cc1Cc1ccc(C(=O)N3CCc4ccccc4C3Cc3ccccc3)o1)C(C)(C)CCC2(C)C (stereo not drawn) [Compound 677]",
    "ASSAY METRIC": "remaining activity at 10 µM",
    "OUTPUT UNIT": "%",
    "RESULT": 54
  },
  {
    "COMPOUND": "Cc1cc2c(cc1Cc1ccc(C(=O)N(Cc3ccoc3)C3CCN(Cc4ccccc4)C3)o1)C(C)(C)CCC2(C)C (stereo not drawn) [Compound 618]",
    "ASSAY METRIC": "remaining activity at 10 µM",
    "OUTPUT UNIT": "%",
    "RESULT": 9
  },
  {
    "COMPOUND": "COc1cccc(N2CCN(C(=O)c3ccc(Cc4cc5c(cc4C)C(C)(C)CCC5(C)C)o3)CC2C)c1 (stereo not drawn) [Compound 663]",
    "ASSAY METRIC": "remaining activity at 10 µM",
    "OUTPUT UNIT": "%",
    "RESULT": 25
  },
  {
    "COMPOUND": "Cc1cc2c(cc1Cc1ccc(C(=O)NCc3cccc(NC(=O)NC(Cc4ccccc4)c4ccccc4)c3)o1)C(C)(C)CCC2(C)C (stereo not drawn) [Compound 682]",
    "ASSAY METRIC": "remaining activity at 10 µM",
    "OUTPUT UNIT": "%",
    "RESULT": 59
  },
  {
    "COMPOUND": "COc1cc(CNC(=O)c2ccc(Cc3cc4c(cc3C)C(C)(C)CCC4(C)C)o2)cc(OC)c1OC [Compound 502]",
    "ASSAY METRIC": "remaining activity at 10 µM",
    "OUTPUT UNIT": "%",
    "RESULT": -2
  },
  {
    "COMPOUND": "Cc1cc2c(cc1Cc1ccc(C(=O)NCc3cccc(CNC(=O)C(Cc4ccccc4)c4ccccc4)c3)o1)C(C)(C)CCC2(C)C (stereo not drawn) [Compound 613]",
    "ASSAY METRIC": "remaining activity at 10 µM",
    "OUTPUT UNIT": "%",
    "RESULT": 53
  },
  {
    "COMPOUND": "CCN(CC)CCNC(=O)c1ccc(Cc2cc3c(cc2C)C(C)(C)CCC3(C)C)o1 [Compound 615]",
    "ASSAY METRIC": "remaining activity at 10 µM",
    "OUTPUT UNIT": "%",
    "RESULT": 7
  },
  {
    "COMPOUND": "Cc1cc2c(cc1Cc1ccc(C(=O)NCCS)o1)C(C)(C)CCC2(C)C [Compound 609]",
    "ASSAY METRIC": "remaining activity at 10 µM",
    "OUTPUT UNIT": "%",
    "RESULT": 47
  },
  {
    "COMPOUND": "Cc1cc2c(cc1Cc1ccc(C(=O)NCCN3CCNC3=O)o1)C(C)(C)CCC2(C)C [Compound 520]",
    "ASSAY METRIC": "remaining activity at 10 µM",
    "OUTPUT UNIT": "%",
    "RESULT": -3
  },
  {
    "COMPOUND": "CCOC(=O)CN(Cc1ccccc1)C(=O)c1ccc(Cc2cc3c(cc2C)C(C)(C)CCC3(C)C)o1 [Compound 536]",
    "ASSAY METRIC": "remaining activity at 10 µM",
    "OUTPUT UNIT": "%",
    "RESULT": 38
  },
  {
    "COMPOUND": "Cc1cc2c(cc1Cc1ccc(C(=O)NCC3CCN(C(N)N)CC3)o1)C(C)(C)CCC2(C)C [Compound 522]",
    "ASSAY METRIC": "remaining activity at 10 µM",
    "OUTPUT UNIT": "%",
    "RESULT": 9
  }
]

----------
SYSTEM: mouse GnRH receptor (Mus musculus, UniProt Q01776)
Construct: expressed in transfected cells; host or cells: 293 cells
Sequence (Q01776 1-327): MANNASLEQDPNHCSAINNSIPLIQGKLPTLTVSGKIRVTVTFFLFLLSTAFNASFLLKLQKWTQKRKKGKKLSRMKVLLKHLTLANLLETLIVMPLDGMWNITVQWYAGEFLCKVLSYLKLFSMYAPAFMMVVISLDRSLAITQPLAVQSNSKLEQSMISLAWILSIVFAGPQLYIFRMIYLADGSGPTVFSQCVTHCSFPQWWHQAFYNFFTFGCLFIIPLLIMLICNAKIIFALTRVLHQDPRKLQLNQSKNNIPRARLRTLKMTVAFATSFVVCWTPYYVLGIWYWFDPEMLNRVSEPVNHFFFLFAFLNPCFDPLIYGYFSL
EXPERIMENT NOTES: Radioligand binding, 125I-GnRH-A, 293 cells expressing mouse GnRH receptors
TEST CONDITIONS: 1 h, substrate remaining; 10 uM compound; closer to zero = closer to 100% inhibition; read-out: S%R 10 uM mGnRHR
Description: All compounds were diluted in 1% DMSO (final assay concentration) in binding assay buffer. […] Reactions were terminated by rapid filtration onto 96-well Packard GF/C filters soaked in 0.1% polyethyleneimine. Filters were washed three times with PBS buffer, dried and counted on a Packard Topcount by liquid scintillation counting. […] The reaction mixture was vortexed and incubated for 1 min at room temperature. […] Fractions were assessed for biological activity by radioligand binding.
Quick reference for remaining activity at 10 µM among some compounds
ASSAY METRIC: remaining activity at 10 µM (%)

[
  {
    "COMPOUND": "Cc1cccc(N2CCN(C(=O)c3ccc(Cc4cc5c(cc4C)C(C)(C)CCC5(C)C)o3)CC2C)c1 (stereo not drawn) [Compound 635]",
    "OUTPUT UNIT": "%",
    "RESULT": 27
  },
  {
    "COMPOUND": "Cc1cc2c(cc1Cc1ccc(C(=O)N(Cc3ccc(C(C)C)cc3)C3CCN(Cc4ccccc4)C3)o1)C(C)(C)CCC2(C)C (stereo not drawn) [Compound 638]",
    "OUTPUT UNIT": "%",
    "RESULT": 53
  },
  {
    "COMPOUND": "Cc1cc2c(cc1Cc1ccc(C(=O)NCc3ccc(-c4csnn4)cc3)o1)C(C)(C)CCC2(C)C [Compound 478]",
    "OUTPUT UNIT": "%",
    "RESULT": 3
  },
  {
    "COMPOUND": "Cc1cc2c(cc1Cc1ccc(C(=O)NCCc3cccc(Oc4ccccc4)c3)o1)C(C)(C)CCC2(C)C [Compound 504]",
    "OUTPUT UNIT": "%",
    "RESULT": 46
  },
  {
    "COMPOUND": "Cc1cc2c(cc1Cc1ccc(C(=O)N(Cc3cccc4ccccc34)C3CCN(Cc4ccccc4)C3)o1)C(C)(C)CCC2(C)C (stereo not drawn) [Compound 631]",
    "OUTPUT UNIT": "%",
    "RESULT": 43
  },
  {
    "COMPOUND": "Cc1cc2c(cc1Cc1ccc(C(=O)NCC3CCN(c4nccc(NCC5CCCO5)n4)CC3)o1)C(C)(C)CCC2(C)C (stereo not drawn) [Compound 491]",
    "OUTPUT UNIT": "%",
    "RESULT": 9
  },
  {
    "COMPOUND": "CCOC(CN(CCc1ccccc1)C(=O)c1ccc(Cc2cc3c(cc2C)C(C)(C)CCC3(C)C)o1)OCC [Compound 689]",
    "OUTPUT UNIT": "%",
    "RESULT": 34
  },
  {
    "COMPOUND": "Cc1cc2c(cc1Cc1ccc(C(=O)NCC(C)O)o1)C(C)(C)CCC2(C)C (stereo not drawn) [Compound 556]",
    "OUTPUT UNIT": "%",
    "RESULT": 10
  },
  {
    "COMPOUND": "Cc1cc2c(cc1Cc1ccc(C(=O)NC(CO)C(C)C)o1)C(C)(C)CCC2(C)C (stereo not drawn) [Compound 574]",
    "OUTPUT UNIT": "%",
    "RESULT": 13
  },
  {
    "COMPOUND": "C=CCN(CC=C)C(=O)c1ccc(Cc2cc3c(cc2C)C(C)(C)CCC3(C)C)o1 [Compound 538]",
    "OUTPUT UNIT": "%",
    "RESULT": 17
  },
  {
    "COMPOUND": "Cc1cc2c(cc1Cc1ccc(C(=O)N(C)CCC#N)o1)C(C)(C)CCC2(C)C [Compound 636]",
    "OUTPUT UNIT": "%",
    "RESULT": 17
  },
  {
    "COMPOUND": "Cc1cc2c(cc1Cc1ccc(C(=O)NCCCCCCN(C)C)o1)C(C)(C)CCC2(C)C [Compound 627]",
    "OUTPUT UNIT": "%",
    "RESULT": -6
  },
  {
    "COMPOUND": "Cc1cc2c(cc1Cc1ccc(C(=O)NC(C)c3ccc([N+](=O)[O-])cc3)o1)C(C)(C)CCC2(C)C (stereo not drawn) [Compound 639]",
    "OUTPUT UNIT": "%",
    "RESULT": 57
  },
  {
    "COMPOUND": "Cc1cc2c(cc1Cc1ccc(C(=O)N(CCN3CCCCC3)Cc3ccccc3)o1)C(C)(C)CCC2(C)C [Compound 603]",
    "OUTPUT UNIT": "%",
    "RESULT": -4
  },
  {
    "COMPOUND": "CCN1CC(N(CCC(C)c2ccccc2)C(=O)c2ccc(Cc3cc4c(cc3C)C(C)(C)CCC4(C)C)o2)CN1CC (stereo not drawn) [Compound 668]",
    "OUTPUT UNIT": "%",
    "RESULT": 6
  }
]
